System: 323965-272-R-J2-PDC complex spheroid viability;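 further: spheroids exposed to agents for seven days before readout; percent of DMSO vehicle control wells so 100% = untreated growth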
Assay: Anticancer human tumor 323965-272-R-J2-PDC patient-derived pancreatic carcinoma cell line growth inhibition [CLK]
Settings: second compound 3.16 µM; first compound 0.0316 µM; hits give low values
measured-endpoint: viability, T/C (%)
// note: answer is a bare numeric in %

INSERT INTO assay_data (compound, test_system, measured_endpoint, measurement_unit, measured_value) VALUES
  ('C=CC(=O)N1CCN(c2nc(=O)n(-c3c(C)ccnc3C(C)C)c3nc(-c4c(O)cccc4F)c(F)cc23)C(C)C1 (configuration not stated) + CN1CCN(c2cc(C(=O)Nc3cc4cc(-c5cnn(C)c5)ccc4cn3)ccn2)CC1', '323965-272-R-J2-PDC complex spheroid viability', 'viability, T/C', '%', 2.77);

Turning now to a further record.
Problem: Reported viability, T/C for 323965-272-R-J2-PDC complex spheroid viability, given CC1(C)CCC(CN2CCN(c3ccc(C(=O)NS(=O)(=O)c4ccc(NCC5CCOCC5)c([N+](=O)[O-])c4)c(Oc4cnc5[nH]ccc5c4)c3)CC2)=C(c2ccc(Cl)cc2)C1 + CN1CCN(c2cc(C(=O)Nc3cc4cc(-c5cnn(C)c5)ccc4cn3)ccn2)CC1 ?
Result: 3.55
